The values you see were collected from PubChem BioAssay (NCI).

Entries and their growth
Test system: CAKI-1 renal
PROTOCOL_NOTES: NCI-60 one-dose screen, 48 h (100 = growth as untreated, 0 = no growth, -100 = all killed)
RECORDED_CONDITIONS: 10 µM unless noted
The panel holds about 83,000 compounds, 20% with a hit somewhere; the sample as a whole holds those more often.
I only need the number, in %, no unit after it.

Here are 9 molecules together with their reported answers.
SMILES_STRING | QUANTITY_UNIT | growth
COc1ccc(C(=S)N2CCN(c3ccccc3Cl)CC2)cc1OC | % | 91.8
CC(=O)c1cc(O)c2ccccc2c1O | % | 85.7
COc1cc(CNC(=O)/C=C/C=C/c2ccc3c(c2)OCO3)ccc1OCc1cn(-c2ccc(C)c(C)c2)nn1 | % | 54.4
O=C(Cn1cc(CN2C(=O)c3ccccc3S2(=O)=O)nn1)Nc1nc2ccccc2s1 | % | 89.6
C#CCOc1cccc(Nc2ncnc3ccc(NC(=O)CCl)cc23)c1 | % | 1.72
CC(=O)OCc1nc(C#N)c(N(C)C)o1 | % | 92.7
N=C(N)c1ccc(-c2ccc(-c3ccc(F)cc3)o2)o1 | % | 31.3
COC1=CC(c2ccc[nH]2)=N/C1=C\c1[nH]c(C)c(C(=O)OCc2ccccc2)c1C | % | -40.7
O=C(c1cc2ccccc2o1)c1nn(-c2ccccc2)/c(=N/N=Cc2cn(-c3ccccc3)nc2-c2cc3ccccc3oc2=O)s1 | % | 79.1

Consider the additional molecule presented here.
For `N#Cc1c(-c2ccc(Cl)cc2)nc(NN=Cc2cccc(O)c2)nc1N1CCOCC1` the molecule record lists growth as 60.5

* * *

Test system: SK-MEL-28 melanoma
PROTOCOL_NOTES: NCI-60 one-dose screen, 48 h (100 = growth as untreated, 0 = no growth, -100 = all killed)
RECORDED_CONDITIONS: 10 µM unless noted
The panel holds about 83,000 compounds, 20% with a hit somewhere; the sample as a whole holds those more often.
Returns one of 1 (yes) or 0 (no); 1 (yes) when growth is >= 70%.

Known results for compounds:
COMPOUND | LABEL
COc1cc(N2C(=O)[C@H](O)C2c2ccc(SC)cc2)cc(OC)c1OC (stereo partly drawn) | 0 (no)
C=C(C)[C@@H]1CC[C@]2(C(=O)OC)CC[C@]3(C)[C@H](CC[C@@H]4[C@@]5(C)C/C(=C/NC(N)=S)C(=O)C(C)(C)[C@@H]5CC[C@]43C)[C@@H]12 | 1 (yes)

Prompt line: Does the compound `CCCCCCCCCCCCCCCCCCOc1ccccc1CC(=O)NCC[N+]1(C)CCCC1` have recorded growth that is 70% or more?
Response line: 1 (yes)

Prompt line: # check: growth of O=C(CCCCC1CCSS1)Nc1ncnc2n[nH]c(-c3ccc(Oc4ccccc4)cc3)c12 (stereo not drawn) is greater than or equal to 70%
Response line: 0 (no)

Prompt line: Hi team, for `Cc1ccccc1Cn1cnc2ccc(-c3cc(NC(=O)c4ccc(NC5CCN(C)CC5)cc4)n[nH]3)cc21` , is the recorded growth at or above 70%?
Response line: 1 (yes)

Prompt line: Does the compound `CCOc1ccc(NC(=O)CSc2oc(-c3ccccc3)nc2S(=O)(=O)c2ccc(F)cc2)cc1` have recorded growth that is 70% or more?
Response line: 1 (yes)

Prompt line: # check: growth of `O=C(c1cc2ccccc2o1)c1nn(-c2ccccc2)/c(=N/N=Cc2cn(-c3ccccc3)nc2-c2cc3ccccc3oc2=O)s1` is greater than or equal to 70%
Response line: 1 (yes)

* * *

Test system: OVCAR-5 ovarian
PROTOCOL_NOTES: NCI-60 one-dose screen, 48 h (100 = growth as untreated, 0 = no growth, -100 = all killed)
RECORDED_CONDITIONS: 10 µM unless noted
Protocol: Growth inhibition of the OVCAR-5 human tumor cell line is measured as a screen for anti-cancer activity. Cells are grown in 96 well plates and exposed to the test compound for 48 hours. Compounds are tested at a single concentration, which is 10^-5 M for most compounds. The reported endpoint is percent growth (GI% or GIPRCNT), where numbers from 0 - 100% represent growth inhibition, and numbers from -100% - 0 represent cell death. For example, a value of 40 represents 60% growth inhibition. […]
About 83,000 compounds went through this panel and 20% of them were active in at least one assay; those are over-represented in the sample as a whole.
Form field: growth (one value per entry).
Hi! Could you send only the number? It should be in %, unit omitted.

In the examples that follow, each entry is paired with its recorded growth.
COMPOUND | SYSTEM_NAME | growth, %
Cc1nnc(-n2c(O)cc(=O)n(-c3ccccc3)c2=S)nc1/C=C/c1ccc(N(C)C)cc1 | OVCAR-5 ovarian | 82.7
C=CCn1c(SCC(=O)Nc2ccc(C(=O)/C=C/c3ccc(Cl)cc3)cc2)nnc1-c1cc(-c2ccc(S(N)(=O)=O)cc2)nc2ccccc12 | OVCAR-5 ovarian | 96.7
O=C(/C=C/c1cn(-c2ccccc2)nc1-c1ccc([N+](=O)[O-])cc1)c1ccc(Cl)cc1 | OVCAR-5 ovarian | 34.2
O=C1CNC(c2ccccc2)C(c2ccccc2)N1 (stereo not given) | OVCAR-5 ovarian | 86.5

The value of growth measured for the compound `C/C(=N/O)c1ccc(F)cc1` turned out to be 80.1

Entry `Cc1cc(Cl)ccc1NC(=O)c1cc2ccccc2cc1O` — recorded growth = 30.5

Lab note: COc1ccc(C(=O)Nc2cccc(C3CC(=O)c4c(cc(OC)c(OC)c4OC)O3)c2)cc1 (stereo not given) gave growth of 46

Per the record, `CC1=Nc2cnc(Nc3ccc(OCCN4CCCCC4)cc3)nc2Nc2ccccc21` has growth of 70.7

So, CC(O)c1cnc(/C=C2\SC(=S)N(Cc3ccccc3)C2=O)s1 (stereo not given) ? Its growth was 90.1

response.value for `Cc1ccc(-c2nc(N3CCNCC3)c3oc(-c4ccccc4)nc3n2)cc1` (field: growth) = 14.7

* * *

Catalogue of compounds with associated growth
Test system: UACC-257 melanoma
PROTOCOL_NOTES: NCI-60 one-dose screen, 48 h (100 = growth as untreated, 0 = no growth, -100 = all killed)
RECORDED_CONDITIONS: 10 µM unless noted
About 83,000 compounds went through this panel and 20% of them were active in at least one assay; those are over-represented in the sample as a whole. Calls of active or inactive are those of the source. Rule for the calls: active = growth percent below 10; inactive = the rest.

SMILES_STRING | SYSTEM_NAME | MEASUREMENT_TYPE | OBSERVED_MEASUREMENT
CCCCNC(=O)Oc1ccc(/C(=C(/CC)Cc2ccccc2)c2ccc(OCCN3CCCCCC3)cc2)cc1 | UACC-257 melanoma | growth | 34.3% (inactive)

Value (growth, UACC-257 melanoma) for record `COc1ccc(NC(=O)c2sc3nc(C)c(C(=O)/C=C/c4cccc(OC)c4)cc3c2N)cc1` = 87.9% (inactive)

Recorded growth for `CC1=C(Nc2ccc(N3CCN(C)CC3)cc2)C(=O)c2cncnc2C1=O` on UACC-257 melanoma was 65.6% (inactive)

Form field, growth with UACC-257 melanoma, item `CNC(=O)c1cc(Oc2ccc3nc(NC(C)=O)sc3c2)ccn1` : 102% (inactive)

The compound `CCOc1ccc(NC(=O)CSc2oc(-c3ccccc3)nc2S(=O)(=O)c2ccc(F)cc2)cc1` , tested on UACC-257 melanoma, showed growth of 70.1% (inactive)

Value sought: growth, system UACC-257 melanoma, item `Cn1cc(-c2csc(-c3ccc(Cl)cc3)n2)c2cccnc21` . Result: -35.6% [100 µM] (active)

The reported growth value, UACC-257 melanoma, for `CCOC(=O)C(=Cc1cccc(Cl)c1)C(=O)OCC` reads 26.1% (inactive)

* * *

System: KM12 colon
PROTOCOL_NOTES: NCI-60 one-dose screen, 48 h (100 = growth as untreated, 0 = no growth, -100 = all killed)
RECORDED_CONDITIONS: 10 µM unless noted
Compounds without any hit were thinned out: in the full panel of roughly 83,000, 20% have a hit. The source made the active and inactive calls. How the source made its calls: active means growth percent below 10; inactive means the rest.
MEASUREMENT_TYPE: growth

COMPOUND | growth
CCOC(=O)c1cn2ncnc(Oc3ccc(NC(=O)NC4CCCCC4)c(Cl)c3)c2c1C | 96.9% (inactive)
CC(C)CCNC(=O)Cn1cccc(NC(=O)OCc2ccccc2)c1=O | 107% (inactive)
O=S(=O)(Nc1ccc(Cl)cc1)c1ccc(-c2cnc(C3CC3)o2)cc1 | 20.9% (inactive)

Reported growth for `CCOC(=O)c1cc(-c2ccc([N+](=O)[O-])cc2)n(-c2ccc(C(=O)O)c(O)c2)c1C` was 86.8% (inactive)

growth measured on N#CC1CCc2c(c(-c3cn[nH]c3C(F)(F)F)nc3c(F)cc4[nH]ncc4c23)C1 (stereo not given) = 13.6% (inactive)

Measured growth of `CCN1CCN(Cc2cn(CC(=O)Nc3ccc4c(ccn4Cc4ccccc4)c3)nn2)CC1` : 101% (inactive)

Recorded growth (compound `Cn1cc(-c2csc(-c3c[nH]c4ccc(Br)cc34)n2)c2cnccc21` ): -79.9% (active)

Looking up `COc1ccc2c(c1)[n+]([O-])c(C(=O)/C=C/C=C(\Cl)c1cc(OC)c(OC)c(OC)c1)c(C)[n+]2[O-]` , I found its growth recorded as 101% (inactive)

Given item `O=C1Nc2ccc(I)cc2C1=O` , the value recorded as its growth is 82.8% (inactive)

Form: compound = `N#Cc1cnc(NCCc2ccncc2)nc1-n1cnc2ccccc21` ; growth = 25.9% (inactive)
